Data origin, for the record: ChEMBL document CHEMBL4673379

assay: Cytotoxicity against African green monkey Vero cells assessed as alteration in cell morphology by microscopic analysis; format: cell-based; conditions: chlorocebus sabaeus
observed-property: MCC (µM)
Could you give me the number in µM? Just the number is fine.

Kindly note the recorded MCC for Nc1ccn([C@@H]2O[C@H](CO)[C@@H](O)C2(F)F)c(=O)n1 , which is 0.008

Kindly note the recorded MCC for C[C@H](NP(=O)(OC[C@H]1O[C@@H](n2ccc(N)nc2=O)C(F)(F)[C@@H]1O)Oc1ccccc1)C(=O)OCc1ccccc1 (stereo partly drawn) [FOSGEMCITABINE PALABENAMIDE] , which is 0.048

Kindly note the recorded MCC for C[C@H](NP(=O)(OC[C@@]1(F)O[C@@H](n2ccc(N)nc2=O)C(F)(F)[C@@H]1O)Oc1ccccc1)C(=O)OCc1ccccc1 (stereo partly drawn) , which is 4

Kindly note the recorded MCC for CCN(CCO)CCCC(C)Nc1ccnc2cc(Cl)ccc12 (stereo not drawn) [HYDROXYCHLOROQUINE] , which is 100

Kindly note the recorded MCC for Nc1ccn([C@@H]2O[C@](F)(CO)[C@@H](O)C2(F)F)c(=O)n1 , which is 0.16

====

tested on: Enterovirus C; assay: Antiviral activity against Polio virus Mahoney infected in human HeLa cells assessed as inhibition of viral replication incubated for 2 days by luminescence analysis; assay type: functional, organism-based; settings: 48 h
observed-property: pIC50
pIC50 here: minus log base 10 of the concentration, concentration in moles per litre.

Kindly note the recorded pIC50 for Nc1ccn([C@@H]2O[C@H](CO)[C@@H](O)C2(F)F)c(=O)n1 , which is 6.52

====

test system: rhinovirus A1B; test: Antiviral activity against Human rhinovirus 1B infected in human HeLa cells assessed as inhibition of virus-induced cytopathicity measured after 2 days by SRB method; format: functional, organism-based; details: Rhinovirus A, 48 h
observed-property: EC50 (µM)
Could you give me the number in µM? Just the number is fine.

Kindly note the recorded EC50 for Nc1ccn([C@@H]2O[C@H](CO)[C@@H](O)C2(F)F)c(=O)n1 , which is 0.81

====

assay: Selectivity index, ratio of CC50 for African green monkey Vero cells to EC50 for antiviral activity against SARS-CoV-2 UC-1075 infected in African green monkey Vero cells; assay type: toxicity; conditions: read-out: Ratio CC50/EC50
observed-property: selectivity ratio
Give only the figure.

Kindly note the recorded selectivity ratio for Nc1ccn([C@@H]2O[C@](F)(CO)[C@@H](O)C2(F)F)c(=O)n1 , which is 2

====

assay: Cytotoxicity against African green monkey Vero cells assessed as alteration in cell morphology by microscopic analysis; format: cell-based; conditions: chlorocebus sabaeus
Give measured MCC for each item. Keep answers brief.

Kindly note the recorded MCC for CCC(CC)COC(=O)[C@H](C)N[P@](=O)(OC[C@H]1O[C@@](C#N)(c2ccc3c(N)ncnn23)[C@H](O)[C@@H]1O)Oc1ccccc1 , which is > 40 µM

Kindly note the recorded MCC for CO[C@]1(COP(=O)(N[C@@H](C)C(=O)OCc2ccccc2)Oc2ccccc2)O[C@@H](n2ccc(N)nc2=O)C(F)(F)[C@@H]1O (stereo partly drawn) , which is ≥ 100 µM

Kindly note the recorded MCC for CO[C@]1(CO)O[C@@H](n2ccc(N)nc2=O)C(F)(F)[C@@H]1O , which is > 100 µM
